Cited source for all entries: ChEMBL document CHEMBL3124926

- method: Aqueous solubility of the compound in buffer at pH 7
- Type: physicochemical
measured_property: solubility (µg/mL)

(A) Cc1ccc(F)cc1C(C)(C)CC(O)(Cc1cc2nnccc2[nH]1)C(F)(F)F (racemic)
(B) Cc1ccc(F)cc1C(C)(C)CC(O)(Cc1cc2ncncc2[nH]1)C(F)(F)F (racemic)
Q: Given the two records A and B , choose the one whose solubility value is lower. # reply format: chosen label
A: A

----------
- target_or_system: Progesterone receptor (Homo sapiens, UniProt P06401)
- Sequence (P06401 whole entry): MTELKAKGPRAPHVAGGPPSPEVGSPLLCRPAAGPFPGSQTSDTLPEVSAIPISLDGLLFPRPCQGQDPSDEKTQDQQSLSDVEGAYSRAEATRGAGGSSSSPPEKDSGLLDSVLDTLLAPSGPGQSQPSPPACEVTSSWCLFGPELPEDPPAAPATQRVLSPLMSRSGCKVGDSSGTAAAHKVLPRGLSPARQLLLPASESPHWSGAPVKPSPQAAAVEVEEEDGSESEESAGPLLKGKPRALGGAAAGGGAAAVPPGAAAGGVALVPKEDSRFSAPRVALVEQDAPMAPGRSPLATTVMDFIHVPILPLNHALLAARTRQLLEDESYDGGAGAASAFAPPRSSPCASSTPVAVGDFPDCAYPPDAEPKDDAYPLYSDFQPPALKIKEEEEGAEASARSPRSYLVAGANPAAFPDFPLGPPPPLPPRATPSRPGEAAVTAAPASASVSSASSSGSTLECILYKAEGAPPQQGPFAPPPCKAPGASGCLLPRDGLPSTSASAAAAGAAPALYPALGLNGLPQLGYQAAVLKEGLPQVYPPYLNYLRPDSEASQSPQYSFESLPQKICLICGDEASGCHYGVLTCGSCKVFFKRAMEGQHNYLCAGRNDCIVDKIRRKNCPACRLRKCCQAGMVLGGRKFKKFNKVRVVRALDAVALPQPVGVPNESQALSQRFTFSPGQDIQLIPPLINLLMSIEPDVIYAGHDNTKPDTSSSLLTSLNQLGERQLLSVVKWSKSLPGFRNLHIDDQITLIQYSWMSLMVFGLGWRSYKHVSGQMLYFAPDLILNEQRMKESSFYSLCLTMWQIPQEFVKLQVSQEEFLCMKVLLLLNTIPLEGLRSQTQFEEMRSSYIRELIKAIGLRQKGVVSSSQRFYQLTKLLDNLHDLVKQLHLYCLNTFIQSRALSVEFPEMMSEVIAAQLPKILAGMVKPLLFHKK
- method: Competitive binding affinity to progesterone receptor (unknown origin) expressed in baculovirus-infected cell system after 1 hr by fluorescence polarization assay in presence of tetramethylrhodamine-labeled RU-486
Entries and their IC50

Cc1ccc(F)cc1C(C)(C)CC(O)(Cc1cc2ncncc2[nH]1)C(F)(F)F (racemic) :: > 2000 nM
Cc1ccc(F)cc1C(C)(C)CC(O)(Cc1cc2nc(C(C)C)ncc2[nH]1)C(F)(F)F (racemic) :: > 2000 nM
CC(C)(CC(O)(Cc1cc2ncncc2[nH]1)C(F)(F)F)c1cccc(S(C)(=O)=O)c1 (racemic) :: > 2000 nM

Q: Field request: IC50 | item: COc1ccc(F)cc1C(C)(C)CC(O)(Cc1cc2ncncc2[nH]1)C(F)(F)F (racemic)
A: > 2000 nM

Q: Field request: IC50 | item: CC(C)(CC(O)(Cc1cc2ncncc2[nH]1)C(F)(F)F)c1cc(F)ccc1O (racemic)
A: > 2000 nM

Q: Field request: IC50 | item: Cc1ccc(F)cc1C(C)(C)CC(O)(Cc1cc2nc(-c3cccnc3)ncc2[nH]1)C(F)(F)F (racemic)
A: > 2000 nM

Q: Field request: IC50 | item: Cc1ccc(F)cc1C(C)(C)CC(O)(Cc1cc2nc(-c3ccccc3)ncc2[nH]1)C(F)(F)F (racemic)
A: > 2000 nM

Q: Field request: IC50 | item: `Cc1ccc(F)cc1C(C)(C)C[C@@](O)(Cc1cc2nnccc2[nH]1)C(F)(F)F`
A: > 2000 nM

Q: Field request: IC50 | item: Cc1ccccc1C(C)(C)CC(O)(Cc1cc2ncncc2[nH]1)C(F)(F)F (racemic)
A: > 2000 nM

Q: Field request: IC50 | item: Cc1ccc(F)cc1C(C)(C)CC(O)(Cc1cc2nc(-c3ccccc3)cnc2[nH]1)C(F)(F)F (configuration not stated)
A: > 2000 nM

Q: Field request: IC50 | item: CC(C)(CC(O)(Cc1cc2ncncc2[nH]1)C(F)(F)F)c1cc(Cl)cc2c1OCC2 (racemic)
A: 1700 nM

Q: Field request: IC50 | item: Cc1ccc(F)cc1C(C)(C)CC(O)(Cc1cc2nnccc2[nH]1)C(F)(F)F (racemic)
A: > 2000 nM

Q: Field request: IC50 | item: Cc1ccc(F)cc1C(C)(C)CC(O)(Cc1cc2cc(-c3ccccc3)nnc2[nH]1)C(F)(F)F (racemic)
A: > 2000 nM

Q: Field request: IC50 | item: CC(C)(CC(O)(Cc1cc2ncncc2[nH]1)C(F)(F)F)c1cc(F)cc2c1OCC2 (racemic)
A: 1400 nM

Q: Field request: IC50 | item: Cc1ccc(F)cc1C(C)(C)CC(O)(Cc1cc2nccnc2[nH]1)C(F)(F)F (racemic)
A: > 2000 nM

Q: Field request: IC50 | item: CC(C)(CC(O)(Cc1cc2ncncc2[nH]1)C(F)(F)F)c1ccc(F)cc1O (racemic)
A: 880 nM

Q: Field request: IC50 | item: Cc1ccc(F)cc1C(C)(C)CC(O)(Cc1cc2nc(N3CCCC3)ncc2[nH]1)C(F)(F)F (racemic)
A: > 2000 nM
